This listing pairs variants with measured protein stability index.
B1: DLC1 (parent)
chain: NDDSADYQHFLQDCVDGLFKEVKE

Variants of: B1
experiment_notes: protein stability index of a GFP-peptide fusion (GPS, HEK-293T) (PSI 1-6); higher = more stable;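 note: lentivirally expressed fusions sorted by FACS into six bins by GFP to DsRed ratio, PSI derived from sequencing read proportions per bin multiplied by bin number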
reported_conditions: c terminus: a fixed tail appended
endpoint_label: protein stability index

[[record]]
variant_label = "G17S"
endpoint_label = "protein stability index"
observed_result = 2.58

[[record]]
variant_label = "D6K"
endpoint_label = "protein stability index"
observed_result = 3

[[record]]
variant_label = "A5V"
endpoint_label = "protein stability index"
observed_result = 2.02

[[record]]
variant_label = "N1F"
endpoint_label = "protein stability index"
observed_result = 1.5

[[record]]
variant_label = "F19P"
endpoint_label = "protein stability index"
observed_result = 5.17

[[record]]
variant_label = "D3M"
endpoint_label = "protein stability index"
observed_result = 2.26

[[record]]
variant_label = "G17F"
endpoint_label = "protein stability index"
observed_result = 2.12

[[record]]
variant_label = "Q8W"
endpoint_label = "protein stability index"
observed_result = 3.5

[[record]]
variant_label = "D3P"
endpoint_label = "protein stability index"
observed_result = 2.65

[[record]]
variant_label = "L11Y"
endpoint_label = "protein stability index"
observed_result = 4.47

[[record]]
variant_label = "N1H"
endpoint_label = "protein stability index"
observed_result = 2.29

[[record]]
variant_label = "V15D"
endpoint_label = "protein stability index"
observed_result = 4.8

[[record]]
variant_label = "A5T"
endpoint_label = "protein stability index"
observed_result = 2.46

[[record]]
variant_label = "G17W"
endpoint_label = "protein stability index"
observed_result = 2.43

[[record]]
variant_label = "L18V"
endpoint_label = "protein stability index"
observed_result = 4.53

[[record]]
variant_label = "E24M"
endpoint_label = "protein stability index"
observed_result = 2.3

[[record]]
variant_label = "S4A"
endpoint_label = "protein stability index"
observed_result = 2.35

[[record]]
variant_label = "V15E"
endpoint_label = "protein stability index"
observed_result = 4.9

[[record]]
variant_label = "V22R"
endpoint_label = "protein stability index"
observed_result = 5.08

[[record]]
variant_label = "K20F"
endpoint_label = "protein stability index"
observed_result = 2.93

[[record]]
variant_label = "N1W"
endpoint_label = "protein stability index"
observed_result = 1.28

[[record]]
variant_label = "L18T"
endpoint_label = "protein stability index"
observed_result = 4.96

